Each record here notes measured EC50 (nM), endogenous B cell depletion in PBMC (FIG. 16A).
# target.entity: T1, canine CD20 on cells (HEK293, MDCK II, CLBL-1 or native B cells) (canine, UniProt Q3C2E2 1-297)
# T1 chain: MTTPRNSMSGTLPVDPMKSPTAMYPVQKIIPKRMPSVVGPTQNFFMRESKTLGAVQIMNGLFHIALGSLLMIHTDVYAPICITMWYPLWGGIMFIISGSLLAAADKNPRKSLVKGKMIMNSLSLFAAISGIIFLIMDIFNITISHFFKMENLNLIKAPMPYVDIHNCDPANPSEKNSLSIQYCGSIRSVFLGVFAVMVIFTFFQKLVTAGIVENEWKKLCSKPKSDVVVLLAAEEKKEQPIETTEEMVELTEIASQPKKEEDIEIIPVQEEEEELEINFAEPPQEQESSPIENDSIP
# method: cell-based or functional assay
Report as a plain number; the unit nM is understood.

>>> measured("PMX172VH/PMX233VH/PMX172VL (bispecific antibody, V domains shown) VH 1: EVQLVESGGDLVKPGGSLRLSCVASGFTFSSYHMSWVRQAPGKGLQWVAYSNSGGSRTSYADAVKGRFTISRDNAKNTLYLQMNSLRAEDTAVYYCASEGGGGRYGYKDYGMDYWGHGTSLFVSS VH 2: EMQLVESGGDLVKPGGSLRLSCVASGFTFSRYYMNWVRQAPGKGLQWVAYIDSGGSPTNYADAVKGRFTISRDNAKNTLYLQMNSLRAEDAAIYYCTTFDFWGQGTLVTVSS VL: SYVLTQLPSKNVTLKQPAHITCGGDNIGSKSVHWYQQKLGQAPVLIIYYDSSRPTGIPERFSGANSGNTATLTISGALAEDEADYYCQVWDSSAKAWVFGEGTQLTVL")
0.307

Sample PMX172VH/PMX230VH/PMX172VL (bispecific antibody, V domains shown) VH 1: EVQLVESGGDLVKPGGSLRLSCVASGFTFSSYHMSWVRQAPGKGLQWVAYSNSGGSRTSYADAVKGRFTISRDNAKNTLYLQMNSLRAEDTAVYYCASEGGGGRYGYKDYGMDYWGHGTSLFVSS VH 2: EVHLVESGGDLVKPGGSLRLSCVASGITFNRYYMNWVRQTPGKGLQWVAYIDSGGSPTTYADAVKGRFTISRDNAKNTLYLQMNSLRAEDTAVYYCTSFDYWGQGTLVTVSS VL: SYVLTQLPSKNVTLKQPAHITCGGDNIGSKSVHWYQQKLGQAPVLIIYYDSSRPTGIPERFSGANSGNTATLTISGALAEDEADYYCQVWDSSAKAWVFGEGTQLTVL ; EC50 (nM), endogenous B cell depletion in PBMC (FIG. 16A) observed: 0.183

So, PMX172VH/PMX236VH/PMX172VL (bispecific antibody, V domains shown) VH 1: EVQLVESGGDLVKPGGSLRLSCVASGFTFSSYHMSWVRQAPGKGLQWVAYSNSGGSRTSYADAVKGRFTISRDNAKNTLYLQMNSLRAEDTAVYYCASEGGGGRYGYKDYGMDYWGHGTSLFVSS VH 2: EVQLVESGGDLVKPGGSLRLSCVASGLTFSRYYMNWVRQAPGKGLQWVAYIDSGGSPTNYADAVKGRFTISRDNAKNTLYLQMNSLRAEDTAVYYCSSFDYWGQGTLVTVSS VL: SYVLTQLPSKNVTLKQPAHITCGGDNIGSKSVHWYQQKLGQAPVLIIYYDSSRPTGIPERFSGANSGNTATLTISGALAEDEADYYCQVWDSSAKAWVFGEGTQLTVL ? Its EC50 (nM), endogenous B cell depletion in PBMC (FIG. 16A) was 0.075
